meta.source: patent US20040044006A1

system: pneumococci with ciprofloxacin MICs ≧8 μg/ml; experiment: Quinolone agar dilution MICs of 28 ciprofloxacin resistant pneumococcal strains, correlated with QRDR mutations; assay type: cell-based, Streptococcus pneumoniae; details: Streptococcus pneumoniae

compound: N[C@@H]1[C@H]2CN(c3nc4c(cc3F)c(=O)c(C(=O)O)cn4-c3ccc(F)cc3F)C[C@@H]12
measured.target: pneumococci with ciprofloxacin MICs ≧8 μg/ml
MIC90 [µg/mL]: 4
//
compound: C[C@@H]1CN(c2c(F)c(N)c3c(=O)c(C(=O)O)cn(C4CC4)c3c2F)C[C@H](C)N1
measured.target: pneumococci with ciprofloxacin MICs ≧8 μg/ml
MIC90 [µg/mL]: 16
//
compound: Cc1c(F)c(N2CCNC(C)C2)cc2c1c(=O)c(C(=O)O)cn2C1CC1 (stereo not shown)
measured.target: pneumococci with ciprofloxacin MICs ≧8 μg/ml
MIC90 [µg/mL]: 8
//
compound: CO/N=C1\CN(c2nc3c(cc2F)c(=O)c(C(=O)O)cn3C2CC2)CC1CN (racemic)
measured.target: pneumococci with ciprofloxacin MICs ≧8 μg/ml
MIC90 [µg/mL]: 0.5

* * *

test system: pneumococcal strains; test: Microbroth dilution MICs of strains tested by time-kill and PAE; type: cell-based; conditions: Streptococcus pneumoniae, strain 9 (R) penicillin resistant; read-out: Microdilution MIC
measured.metric: MIC (µg/mL)

compound: CO/N=C(\C(=O)N[C@@H]1C(=O)N2C(C(=O)O)=C(COC(N)=O)CS[C@H]12)c1ccco1 [Cefuroxime, cefuroxime]
inequality.symbol: =
readout.value: 2
//
compound: CC1(C)S[C@@H]2[C@H](NC(=O)[C@H](N)c3ccc(O)cc3)C(=O)N2[C@H]1C(=O)O [Amoxicillin, amoxicillin]
inequality.symbol: =
readout.value: 1
//
compound: CC[C@H]1OC(=O)[C@H](C)[C@@H](O[C@H]2C[C@@](C)(OC)[C@@H](O)[C@H](C)O2)[C@H](C)[C@@H](O[C@@H]2O[C@H](C)C[C@H](N(C)C)[C@H]2O)[C@](C)(OC)C[C@@H](C)C(=O)[C@H](C)[C@@H](O)[C@]1(C)O [Clarithromycin, clarithromycin]
inequality.symbol: >
readout.value: 64
//
compound: CO/N=C1\CN(c2nc3c(cc2F)c(=O)c(C(=O)O)cn3C2CC2)CC1CN (racemic) [Gemifloxacin]
inequality.symbol: =
readout.value: 0.03

* * *

# MIC annotations
Test system: pneumococci with ciprofloxacin MICs ≧8 μg/ml
Experiment: Quinolone agar dilution MICs of 28 ciprofloxacin resistant pneumococcal strains, correlated with QRDR mutations
Format: cell-based, Streptococcus pneumoniae
Details: Streptococcus pneumoniae, read-out: MICs in strains with three or four QRDR mutations, 20 strains; bound holds in all 20 (ciprofloxacin, levofloxacin, sparfloxacin), 19 (grepafloxacin), 10 (trovafloxacin), 18 (gemifloxacin)
Procedure: Additionally these strains were tested for mutations in parC, gyrA, parE, and gyrB (Pan, et al. Antimicrob. Agents Chemother. 40:2321-2326, 1996) and for efflux mechanism (Brenwald, et ail., Antimicrob. Agents Chemother. 42:2032-2035, 1998). Gemifloxacin susceptibility powder was obtained from SmithKline Beecham Laboratories, Harlow, UK. […]
measured.metric: MIC

compound: CO/N=C1\CN(c2nc3c(cc2F)c(=O)c(C(=O)O)cn3C2CC2)CC1CN (racemic)
measured.metric: MIC
readout.value: < 0.5 µg/mL
//
compound: C[C@@H]1CN(c2c(F)c(N)c3c(=O)c(C(=O)O)cn(C4CC4)c3c2F)C[C@H](C)N1
measured.metric: MIC
readout.value: > 1 µg/mL
//
compound: Cc1c(F)c(N2CCNC(C)C2)cc2c1c(=O)c(C(=O)O)cn2C1CC1 (stereo not shown)
measured.metric: MIC
readout.value: > 1 µg/mL
//
compound: N[C@@H]1[C@H]2CN(c3nc4c(cc3F)c(=O)c(C(=O)O)cn4-c3ccc(F)cc3F)C[C@@H]12
measured.metric: MIC
readout.value: > 2 µg/mL
